- Measured On: T1, human GLP-2R (glucagon-like peptide-2 receptor) (human, UniProt O95838 1-553)
- T1 sequence (looked up): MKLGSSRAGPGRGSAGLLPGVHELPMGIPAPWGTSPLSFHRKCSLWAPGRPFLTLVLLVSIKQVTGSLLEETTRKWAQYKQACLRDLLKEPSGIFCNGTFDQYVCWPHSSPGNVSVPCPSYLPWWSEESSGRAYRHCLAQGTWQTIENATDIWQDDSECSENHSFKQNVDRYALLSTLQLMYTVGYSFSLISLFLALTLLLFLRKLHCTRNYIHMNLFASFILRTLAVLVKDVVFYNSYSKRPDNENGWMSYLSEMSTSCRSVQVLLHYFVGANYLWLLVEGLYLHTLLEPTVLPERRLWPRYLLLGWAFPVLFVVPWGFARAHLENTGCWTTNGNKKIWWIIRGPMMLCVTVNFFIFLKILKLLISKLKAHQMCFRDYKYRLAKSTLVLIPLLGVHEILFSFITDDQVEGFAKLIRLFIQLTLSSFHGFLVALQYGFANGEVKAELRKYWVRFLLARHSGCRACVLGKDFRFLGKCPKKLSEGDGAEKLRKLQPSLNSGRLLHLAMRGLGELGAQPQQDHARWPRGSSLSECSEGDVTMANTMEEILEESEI
- Test Description: cell-based or functional assay
*1 amine or outer side, *2 acyl side, *3 side chain or, on linkers, in order; H or OH if unused. Where no end group is shown, it is not given here. Side-chain parts run from the residue outwards. [ ]: non-standard residue; d: D form. The star is where a group is joined. C18 diacid = O=C(O)CCCCCCCCCCCCCCCCC(=O)*; γGlu = O=C(O)[C@H](CCC(=O)[*:2])N[*:1]; AEEA = NCCOCCOCC(=O)O; Aib = CC(C)(N)C(=O)O
Entries and their Efficacy GLP-2R
Lab note: record just the number, no unit beside it.

# Binder, Efficacy GLP-2R
records = [
    ("HADGTFTSDYSIILDK([AEEA-AEEA-γGlu-C18 diacid])LAARDFINWLIQTKGKKNDWKHNITQ-OH [Compound 20]", 100),
    ("HADGTFTSDYSTILDKK([AEEA-AEEA-γGlu-C18 diacid])AARDFINWLIQTKGKKNDWKHNITQ-OH [Compound 23]", 95),
]

Next:
Returns the measured Efficacy GLP-2R for the input binder. Input: HADGTFTSDYST[Aib]LDK([AEEA-AEEA-γGlu-C18 diacid])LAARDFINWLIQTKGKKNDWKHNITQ-OH [Compound 22]
93
